// provenance: paper PMC6344896

Biological target: HuR WT (human, UniProt Q15717 1-326)
Sequence (Q15717 whole entry): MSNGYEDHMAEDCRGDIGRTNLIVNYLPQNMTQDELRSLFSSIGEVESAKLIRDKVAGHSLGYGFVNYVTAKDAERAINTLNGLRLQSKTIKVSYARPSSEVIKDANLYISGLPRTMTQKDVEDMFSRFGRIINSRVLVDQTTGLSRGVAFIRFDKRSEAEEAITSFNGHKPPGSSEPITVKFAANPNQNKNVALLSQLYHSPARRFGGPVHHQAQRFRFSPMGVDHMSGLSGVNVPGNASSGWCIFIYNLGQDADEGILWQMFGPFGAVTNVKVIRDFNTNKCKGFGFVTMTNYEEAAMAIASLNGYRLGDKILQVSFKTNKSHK
Experiment: ITC; n=0.7; ITC: 50 mM sodium phosphate pH 7.0, 200 mM NaCl, 2 mM beta-mercaptoethanol, 298 K; NMR: 20 mM sodium phosphate pH 7.0, 200 mM NaCl, 5 mM DTT, 1 mM EDTA, 298 K
Settings: protein: recombinant; tags: untagged (His6-MBP cleaved)
assay-metric: pKd
Answers are plain numbers, as −log10 of the molar value.

## Input Recall and state the measured pKd for AUUUUUAUUUUAUUUUU (ssRNA) [AU17] .
## Output 7.40
